- system: T1, Extracellular domain (ECD) of the canine IL-4 receptor alpha-V5 epitope-AviTag-His Tag (canine)
- T1 construct: monomeric form isolated by size exclusion; also called canine IL-4RA-V5-Avi-His; canine IL-4RA
- T1 chain: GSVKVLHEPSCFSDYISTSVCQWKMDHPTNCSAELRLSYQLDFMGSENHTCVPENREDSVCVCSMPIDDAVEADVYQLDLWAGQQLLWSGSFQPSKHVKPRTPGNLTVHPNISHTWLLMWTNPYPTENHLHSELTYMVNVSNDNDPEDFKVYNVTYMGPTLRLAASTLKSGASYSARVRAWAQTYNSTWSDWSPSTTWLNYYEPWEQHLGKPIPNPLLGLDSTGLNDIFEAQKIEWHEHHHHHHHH
- test method notes: SPR, Fab-SASA captured on BSA;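 also: biacore T200 SPR, Fab-SASA variants from E. coli conditioned medium captured on BSA-coated CM5 chip, canine IL-4RA injected 120 s then 420 s dissociation, 1:1 model fit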
reported property: kon (M⁻¹ s⁻¹)
Lab book: enter the figure in M⁻¹ s⁻¹, no units written.

Tell me its kon given TB640_005 Fab-SASA VL-Y35M (Fab, V domains shown, not shown: SASA tag then His-tag) VH: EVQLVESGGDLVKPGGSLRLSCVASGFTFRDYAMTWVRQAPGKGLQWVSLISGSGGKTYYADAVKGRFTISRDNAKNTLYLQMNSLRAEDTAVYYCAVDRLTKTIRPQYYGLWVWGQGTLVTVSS VL: DIVMTQTPLSLSVSPGETASISCRSSQSLLYSIGMNYLDWYLQKPGQSPQGLIYLGSKRASGVPDRFSGSGSGTDFTLRISRVEANDTGVYYCMQGLQSPLTFGQGTKLEIKR as the entry.
112000

Identify measured kon corresponding to TB640_005 Fab-SASA VH-V114G (Fab, V domains shown, not shown: SASA tag then His-tag) VH: EVQLVESGGDLVKPGGSLRLSCVASGFTFRDYAMTWVRQAPGKGLQWVSLISGSGGKTYYADAVKGRFTISRDNAKNTLYLQMNSLRAEDTAVYYCAVDRLTKTIRPQYYGLWGWGQGTLVTVSS VL: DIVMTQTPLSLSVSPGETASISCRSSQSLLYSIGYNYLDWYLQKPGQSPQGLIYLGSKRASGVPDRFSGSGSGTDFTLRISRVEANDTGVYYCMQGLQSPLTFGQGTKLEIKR
185000

Let me know recorded kon for TB640_005 Fab-SASA VL-Q95N (Fab, V domains shown, not shown: SASA tag then His-tag) VH: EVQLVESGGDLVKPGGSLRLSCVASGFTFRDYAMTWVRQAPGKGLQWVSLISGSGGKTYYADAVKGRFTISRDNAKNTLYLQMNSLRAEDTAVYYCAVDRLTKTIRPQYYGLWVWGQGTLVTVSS VL: DIVMTQTPLSLSVSPGETASISCRSSQSLLYSIGYNYLDWYLQKPGQSPQGLIYLGSKRASGVPDRFSGSGSGTDFTLRISRVEANDTGVYYCMNGLQSPLTFGQGTKLEIKR , thanks.
116000
